Dmax for assorted molecules
- assayedTarget: BCL-XL (Homo sapiens, UniProt Q07817)
- Construct: endogenous in cells; host or cells: MOLT-4
- Sequence (Q07817 whole entry): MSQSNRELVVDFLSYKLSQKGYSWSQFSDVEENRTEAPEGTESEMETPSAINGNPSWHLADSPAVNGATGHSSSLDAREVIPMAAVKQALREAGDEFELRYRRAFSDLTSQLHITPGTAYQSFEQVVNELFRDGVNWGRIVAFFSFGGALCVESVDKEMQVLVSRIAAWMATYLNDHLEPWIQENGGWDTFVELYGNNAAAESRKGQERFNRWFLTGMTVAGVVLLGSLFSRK
- method: Bcl-xL ELISA degradation in MOLT-4 cells, 6 h
- Type: cell-based

smiles	recordedMetric	result
Cc1ncsc1-c1ccc(CNC(=O)[C@@H]2C[C@@H](O)CN2C(=O)[C@@H](NC(=O)C2(F)CC2)C(C)(C)C)c(OCC2CCN(CC[C@H](CSc3ccccc3)Nc3ccc(S(=O)(=O)NC(=O)c4ccc(N5CCN(CC6=C(c7ccc(Cl)cc7)CCC(C)(C)C6)CC5)cc4)cc3S(=O)(=O)C(F)(F)F)CC2)c1	Dmax	< 50%

## Input Would you mind telling me what Dmax value was observed for Cc1ncsc1-c1ccc(CNC(=O)[C@@H]2C[C@@H](O)CN2C(=O)[C@@H](NC(=O)C2(F)CC2)C(C)(C)C)c(OCCN2CCN(CC[C@H](CSc3ccccc3)Nc3ccc(S(=O)(=O)NC(=O)c4ccc(N5CC6(CC(N7CCC[C@H]7c7ccccc7C7CC7)C6)C5)cc4)cc3S(=O)(=O)C(F)(F)F)CC2)c1 ?
## Output > 75%
